src = patent US5514694A

The following molecules have recorded IC50 on Human leukocyte cathepsin G (Homo sapiens, UniProt P08311).
Sequence (P08311 21-255): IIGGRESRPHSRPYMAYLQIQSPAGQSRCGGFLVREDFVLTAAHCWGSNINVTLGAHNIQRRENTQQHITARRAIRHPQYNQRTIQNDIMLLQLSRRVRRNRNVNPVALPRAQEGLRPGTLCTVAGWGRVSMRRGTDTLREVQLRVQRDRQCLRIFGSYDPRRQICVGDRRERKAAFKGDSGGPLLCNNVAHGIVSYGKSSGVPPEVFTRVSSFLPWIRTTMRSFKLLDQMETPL
Please respond with the number in µM and leave the unit unwritten.

Molecule: CCCCNC(=O)C(=O)C(Cc1ccccc1)NC(=O)C(CC(C)C)NC(=O)OCc1ccccc1 (stereo not drawn)
IC50 / µM: 68

Molecule: CC(C)C[C@H](NC(=O)OCc1ccccc1)C(=O)N[C@@H](Cc1ccccc1)C(=O)C(=O)NCC(O)c1ccccc1 (stereo partly drawn)
IC50 / µM: 102

Molecule: CC(C)C[C@H](NC(=O)OCc1ccccc1)C(=O)N[C@@H](Cc1ccccc1)C(=O)C(N)=O
IC50 / µM: 80

Molecule: CCNC(=O)C(=O)[C@H](Cc1ccccc1)NC(=O)[C@H](CC(C)C)NC(=O)OCc1ccccc1
IC50 / µM: 91

Molecule: CCCNC(=O)C(=O)C(Cc1ccccc1)NC(=O)C(CC(C)C)NC(=O)OCc1ccccc1 (stereo not drawn)
IC50 / µM: 65

Molecule: CCC(C)NC(=O)C(=O)C(Cc1ccccc1)NC(=O)C(CC(C)C)NC(=O)OCc1ccccc1 (stereo not drawn)
IC50 / µM: 128

Molecule: CCCCNC(=O)C(=O)C(CC)NC(=O)C(CC(C)C)NC(=O)OCc1ccccc1 (stereo not drawn)
IC50 / µM: 148

IC50 for Human leukocyte cathepsin G (Homo sapiens, UniProt P08311) with input CCCCCCCCCNC(=O)C(=O)C(CC)NC(=O)C(CC(C)C)NC(=O)OCc1ccccc1 (stereo not drawn) equals 150
